test system: ACHN; assay: NCI tumour cell line growth inhibition, 48 h
Calls of active or inactive are those of the source. Cut-off read from the data, not from the text of the source: active = GI50 up to about 1.1 µM and inactive = higher.
Assign a class; possible classes are label 1 for active, label 0 for inactive

>  <molecule>
COC1CC2CCC(C)[C@](O)(O2)C(=O)C(=O)N2CCCCC2C(=O)OC(C(C)CC2CCC(O)C(OC)C2)CC(=O)C(C)C=C(C)C(OC(=O)CN(C)C)C(OC)C(=O)C(C)CC(C)/C=C/C=C/C=C\1C (stereo not given in full)

>  <qualitativeLabel>
label 1

$$$$
>  <molecule>
CC(C)CCNC(=O)c1ccc(CNC(=O)/C=C/c2csc(-c3ccccc3)n2)cc1

>  <qualitativeLabel>
label 0

$$$$
>  <molecule>
COC(=O)C(=O)C(C(=O)C(=O)Nc1cccc([N+](=O)[O-])c1)c1nc2ccc(Cl)cc2nc1O (stereo not given)

>  <qualitativeLabel>
label 0

$$$$
>  <molecule>
C=C(Br)CN(C(C)=O)C1CCCCC1

>  <qualitativeLabel>
label 0

$$$$
>  <molecule>
CC(C)C(O)(C(C)C)C(C)C

>  <qualitativeLabel>
label 0

$$$$
>  <molecule>
COc1cc2c(cc1OC)[C@H]1CN3CCC[C@H]3C=C1c1ccc(OC)c(O)c1-2

>  <qualitativeLabel>
label 1

$$$$
>  <molecule>
C(=N\c1ccc(-c2nc3ccccc3o2)cc1)/c1ccco1

>  <qualitativeLabel>
label 0

$$$$
>  <molecule>
C=C(CO)C(=O)OC1CC(=C)C2CC(O)C(C)C2C2OC(=O)C(=C)C12 (stereo not given)

>  <qualitativeLabel>
label 0

$$$$
>  <molecule>
CC(=O)SC(C[N+](=O)[O-])c1ccc2c(c1)OCO2 (stereo not given)

>  <qualitativeLabel>
label 0

$$$$

Now consider a different molecule.
What did the test return for N#CCC(=O)N/N=C(\CCN1CCCC1)CC(c1ccccc1)c1c(O)c2ccccc2oc1=O (stereo not given) ?
label 0

Data provenance is ChEMBL document CHEMBL1201862.
